All figures here come from patent US11986471B2.

system: HAP1 MTAP-intact; test: SDMA in-cell western assay, HAP1 MTAP-intact cell line; format: cell-based; conditions: Homo sapiens
pIC50: −log10 of the molar value.
Field: pIC50. Provide a value for each of the compounds that follow.

Item CC(=O)N1CCC(Nc2cc(C(=O)NC[C@H](O)CN3CCc4c(ccc(OCc5cn[nH]c5)c4Cl)C3)ncn2)CC1 has what recorded pIC50?
> 6.00

Proceed to CC(=O)N1CCC(Nc2cc(C(=O)NC[C@H](O)CN3CCc4cc(OCc5ocnc5C)ccc4C3)cc(N3CCN(C(C)=O)CC3)n2)CC1
≤ 5.00

Proceed to COc1cnc(NC2CCN(C(C)=O)CC2)cc1C(=O)NC[C@H](O)CN1CCc2cc(OCc3ocnc3C)ccc2C1
5.00 to 6.00

Proceed to O=C(NC[C@H](O)CN1CCc2c(Cl)c(OCc3cnco3)cc(F)c2C1)c1ccnc(NC2CCC2)c1
≤ 5.00

Proceed to CC(=O)N1CCC(Nc2cc(C(=O)NC[C@H](O)CN3CCc4c(ccc(OCc5ocnc5C)c4C)C3)cc(N3CCCCC3)n2)CC1
5.00 to 6.00

Proceed to CC(C)C(=O)N1CC(Nc2cc(C(=O)NC[C@H](O)CN3CCc4cc(OCc5cnco5)ccc4C3)ccn2)C1
5.00 to 6.00

Proceed to COCCN(C)c1cc(C(=O)NC[C@H](O)CN2CCc3cc(OCc4ocnc4C)ccc3C2)cc(NC2CCC2)n1
> 6.00

====

target: PRMT5 (Homo sapiens); construct: purchased Viva (custom protein); test: PRMT5 IC50 assay in the presence of SAM as cofactor; format: biochemical
Sequence (O14744 whole entry): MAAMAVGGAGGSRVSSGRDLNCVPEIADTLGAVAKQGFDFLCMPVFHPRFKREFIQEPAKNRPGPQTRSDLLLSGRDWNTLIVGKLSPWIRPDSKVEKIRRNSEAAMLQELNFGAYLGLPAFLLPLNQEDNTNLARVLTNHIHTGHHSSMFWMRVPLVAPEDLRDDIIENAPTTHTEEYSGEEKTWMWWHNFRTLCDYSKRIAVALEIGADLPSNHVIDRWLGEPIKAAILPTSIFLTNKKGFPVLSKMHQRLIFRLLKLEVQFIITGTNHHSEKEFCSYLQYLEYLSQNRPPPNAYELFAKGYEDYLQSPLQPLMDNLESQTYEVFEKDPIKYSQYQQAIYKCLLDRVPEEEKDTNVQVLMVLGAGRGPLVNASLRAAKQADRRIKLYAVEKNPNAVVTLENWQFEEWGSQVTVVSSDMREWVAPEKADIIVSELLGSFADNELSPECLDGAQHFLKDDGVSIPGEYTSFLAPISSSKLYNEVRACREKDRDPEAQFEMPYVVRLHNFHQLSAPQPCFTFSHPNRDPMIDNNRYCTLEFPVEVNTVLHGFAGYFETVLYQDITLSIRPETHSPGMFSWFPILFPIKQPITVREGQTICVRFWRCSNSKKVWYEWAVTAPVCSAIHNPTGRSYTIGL
Sequence (Q9BQA1 whole entry partner): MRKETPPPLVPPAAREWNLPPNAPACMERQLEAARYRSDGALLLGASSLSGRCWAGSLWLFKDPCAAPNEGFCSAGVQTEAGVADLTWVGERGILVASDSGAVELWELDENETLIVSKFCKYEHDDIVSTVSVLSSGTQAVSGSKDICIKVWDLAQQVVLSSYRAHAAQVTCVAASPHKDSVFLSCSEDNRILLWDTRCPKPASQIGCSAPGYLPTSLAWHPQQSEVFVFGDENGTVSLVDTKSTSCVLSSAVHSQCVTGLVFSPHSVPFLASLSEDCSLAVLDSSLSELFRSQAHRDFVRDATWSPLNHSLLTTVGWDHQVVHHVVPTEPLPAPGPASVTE
pIC50: −log10 of the molar value.
QUANTITY_MEASURED: pIC50

Item CC(=O)N1CCN(c2cc(C(=O)NC[C@H](O)CN3CCc4c(ccc(OCc5ocnc5C)c4C)C3)cc(NC3CCC3)n2)CC1 has what recorded pIC50?
6.30 to 7.30

Proceed to CCCN(C)c1nc(NC2COC2)cc(C(=O)NC[C@H](O)CN2CCc3c(ccc(OCc4ocnc4C)c3C)C2)n1
6.30 to 7.30

Proceed to CC(=O)N1CCC(Nc2cc(C(=O)NC[C@H](O)CN3CCc4c(C)c(OCc5ocnc5C)cc(F)c4C3)cc(N3CCCCC3)n2)CC1
5.30 to 6.30

Proceed to CC(=O)N1CCC(Nc2cc(C(=O)NC[C@H](O)CN3CCc4c(ccc(OCc5ccnn5C)c4C)C3)ncn2)CC1
5.30 to 6.30

Proceed to CN1CCN(c2cc(C(=O)NC[C@H](O)CN3CCc4c(ccc(OCc5cnco5)c4Cl)C3)cc(NC3CCC3)n2)CC1
6.30 to 7.30

Proceed to CC(=O)N1CCC(Nc2cc(C(=O)NC[C@H](O)CN3CCc4c(ccc(OCc5ocnc5C)c4C)C3)cc(N3CCN(C(C)=O)CC3)n2)CC1
6.30 to 7.30

Proceed to Cc1c(OCc2cnco2)ccc2c1CCN(C[C@@H](O)CNC(=O)c1cc(NC3CN(C(=O)CC(C)C)C3)ncn1)C2
5.30 to 6.30

Proceed to Cc1ncoc1COc1ccc2c(c1)CCN(C[C@@H](O)CNC(=O)c1cccc(NC3COC3)c1)C2
5.30 to 6.30

Proceed to Cc1ncoc1COc1ccc2c(c1Br)CCN(C[C@@H](O)CNC(=O)c1cccc(NC3CCC3)c1)C2
5.30 to 6.30

Proceed to CC(=O)N1CCC(Nc2cc(C(=O)NC[C@H](O)CN3CCc4cc(OCc5cn[nH]c5)ccc4C3)ncn2)CC1
6.30 to 7.30

Proceed to CC(=O)N1CCC(Nc2cc(C(=O)NC[C@H](O)CN3CCc4c(C)c(OCc5ocnc5C)cc(F)c4C3)ccn2)CC1
6.30 to 7.30

Proceed to CC(C)C(=O)N1CCC(Nc2cc(C(=O)NC[C@H](O)CN3CCc4cc(OCc5cnco5)ccc4C3)ccn2)CC1
6.30 to 7.30

Proceed to CC(=O)N1CC(Nc2cc(C(=O)NC[C@H](O)CN3CCc4cc(OCc5cnco5)ccc4C3)nc(N3CCCCC3)n2)C1
6.30 to 7.30

Proceed to CCCC(=O)N1CC(Nc2cc(C(=O)NC[C@H](O)CN3CCc4cc(OCc5ocnc5C)c(F)cc4C3)ccn2)C1
6.30 to 7.30

Proceed to O=C(NC[C@H](O)CN1CCc2c(ccc(OCc3cnco3)c2Cl)C1)c1cc(NC2CCC2)nc(N2CCNCC2)c1
6.30 to 7.30

Proceed to O=C(NC[C@H](O)CN1CCc2c(ccc(OCc3cnco3)c2I)C1)c1ccnc(NC2CCC2)c1
5.30 to 6.30

Proceed to O=C(NC[C@H](O)CN1CCc2c(ccc(OCc3cnco3)c2Cl)C1)c1cc(NC2COC2)nc(N2CCOCC2)n1
5.30 to 6.30

Proceed to O=C(NC[C@H](O)CN1CCc2cc(OCc3cnco3)ccc2C1)c1cc(NC2CCC2)ncc1Cl
5.30 to 6.30

Proceed to Cc1ncoc1COc1ccc2c(c1)CCN(C[C@@H](O)CNC(=O)c1ccnc(NC3CCN(C)C(=O)C3)c1)C2 (stereo partly drawn)
6.30 to 7.30

Proceed to CC(=O)N1CC(Nc2cc(C(=O)NC[C@H](O)CN3CCc4cc(OCc5ocnc5C)ccc4C3)nc(N3CCCCC3)n2)C1
6.30 to 7.30

Proceed to Cc1c(OCc2ccnn2C)ccc2c1CCN(C[C@@H](O)CNC(=O)c1ccnc(NC3CCC3)c1)C2
5.30 to 6.30

Proceed to Cc1ncoc1COc1ccc2c(c1C)CCN(C[C@@H](O)CNC(=O)c1cc(NC3COC3)nc(N3CCN(C(C)(C)C)CC3)n1)C2
6.30 to 7.30

Proceed to CC(C)Cc1cc(C(=O)NC[C@H](O)CN2CCc3cc(OCc4cnco4)ccc3C2)cc(NC2CCC2)n1
5.30 to 6.30

Proceed to Cc1ncoc1COc1ccc2c(c1)CCN(C[C@@H](O)CNC(=O)c1ccnc(NC3CC4(CCC4)C3)c1)C2
5.30 to 6.30

Proceed to CS(=O)(=O)N1CCC(Nc2cc(C(=O)NC[C@H](O)CN3CCc4cc(OCc5cnco5)ccc4C3)ccn2)CC1
6.30 to 7.30

Proceed to Cc1ncoc1COc1ccc2c(c1C)CCN(C[C@@H](O)CNC(=O)c1cccc(NC3CCC3)c1)C2
5.30 to 6.30

Proceed to Cc1ncoc1COc1ccc2c(c1Br)CCN(C[C@@H](O)CNC(=O)c1ccnc(NC3CCC3)c1)C2
5.30 to 6.30
